Below, each entry is listed alongside its reported pEC50.
# assayedTarget: human MOR (Homo sapiens)
# assayInfo: [35S]GTPγS binding assay using CHO-hMOR cell membranes
# measurementSetup: read-out: functional activity [35S]GTPγS MOR EC50; CHO-hMOR membranes; mean ± SEM
API: returns pEC50 as number; meaning -log10 of concentration in mol/L.

CO[C@@]12CCC[C@@H]3Oc4c(O)ccc5c4[C@@]31CCN(C)[C@@H]2C5 8.86
CN1CC[C@]23c4c5ccc(O)c4O[C@H]2CCC[C@@]3(OCc2ccccc2)[C@H]1C5 9.89
CO[C@@]12CCC(=O)[C@]3(C)Oc4c(O)ccc5c4[C@@]31CCN(C)[C@@H]2C5 8.48
CO[C@@]12CCC[C@]3(C)Oc4c(O)ccc5c4[C@@]31CCN(C)[C@@H]2C5 8.53
CN1CC[C@]23c4c5ccc(O)c4O[C@H]2C(=O)CC[C@@]3(OCc2ccccc2)[C@H]1C5 9.49
CN1CC[C@]23c4c5ccc(O)c4O[C@H]2CCC[C@@]3(O)[C@H]1C5 8.05

Query: I am curious: what pEC50 value has been reported for CO[C@@]12CCC(=O)[C@@H]3Oc4c(O)ccc5c4[C@@]31CCN(C)[C@@H]2C5 ?
Response: 8.84

---

Below, each entry is listed alongside its reported Ki.
# assayedTarget: human MOR (Homo sapiens, UniProt P35372)
# Sequence (P35372 whole entry): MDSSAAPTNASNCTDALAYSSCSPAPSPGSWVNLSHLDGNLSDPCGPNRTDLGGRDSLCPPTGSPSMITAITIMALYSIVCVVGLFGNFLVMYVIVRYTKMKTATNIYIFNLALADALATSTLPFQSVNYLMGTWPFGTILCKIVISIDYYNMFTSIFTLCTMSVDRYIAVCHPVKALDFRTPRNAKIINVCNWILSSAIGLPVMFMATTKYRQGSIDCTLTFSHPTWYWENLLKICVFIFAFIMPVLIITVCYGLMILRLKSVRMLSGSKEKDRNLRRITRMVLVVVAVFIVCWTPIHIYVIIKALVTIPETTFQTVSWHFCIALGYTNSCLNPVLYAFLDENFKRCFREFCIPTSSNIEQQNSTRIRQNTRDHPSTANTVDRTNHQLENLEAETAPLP
// units = nM; emit number, no label

// worked examples, Ki included
CO[C@@]12CCC[C@]3(C)Oc4c(O)ccc5c4[C@@]31CCN(C)[C@@H]2C5 0.34
CN1CC[C@]23c4c5ccc(O)c4O[C@H]2C(=O)CC[C@@]3(OCc2ccccc2)[C@H]1C5 0.45
CO[C@@]12CCC(=O)[C@@H]3Oc4c(O)ccc5c4[C@@]31CCN(C)[C@@H]2C5 0.32
CO[C@@]12CCC[C@@H]3Oc4c(O)ccc5c4[C@@]31CCN(C)[C@@H]2C5 0.24
CN1CC[C@]23c4c5ccc(O)c4O[C@H]2CCC[C@@]3(O)[C@H]1C5 1.65

We next turn to a different molecule, shown below.
Query: I am curious: what Ki value has been reported for CN1CC[C@]23c4c5ccc(O)c4O[C@H]2CCC[C@@]3(OCc2ccccc2)[C@H]1C5 ?
Response: 0.048

---

# assayedTarget: human DOR (Homo sapiens, UniProt P41143)
# Sequence (P41143 whole entry): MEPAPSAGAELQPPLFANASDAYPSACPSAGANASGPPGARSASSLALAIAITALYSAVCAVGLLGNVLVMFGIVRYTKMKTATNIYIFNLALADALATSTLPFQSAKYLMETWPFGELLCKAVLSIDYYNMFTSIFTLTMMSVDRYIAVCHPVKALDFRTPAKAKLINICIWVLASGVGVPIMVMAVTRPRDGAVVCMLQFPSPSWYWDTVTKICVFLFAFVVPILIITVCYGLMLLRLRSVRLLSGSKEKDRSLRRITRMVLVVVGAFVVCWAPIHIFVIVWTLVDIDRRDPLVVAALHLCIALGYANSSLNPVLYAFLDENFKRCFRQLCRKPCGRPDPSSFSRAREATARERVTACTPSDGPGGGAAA
Below, each entry is listed alongside its reported Ki.
// units = µM; emit number, no label

molecule	Ki, µM
CO[C@@]12CCC[C@]3(C)Oc4c(O)ccc5c4[C@@]31CCN(C)[C@@H]2C5 [Compound 4a]	0.0129
CN1CC[C@]23c4c5ccc(O)c4O[C@H]2CCC[C@@]3(OCc2ccccc2)[C@H]1C5 [Compound 3a]	0.00089
CO[C@@]12CCC(=O)[C@]3(C)Oc4c(O)ccc5c4[C@@]31CCN(C)[C@@H]2C5 [Compound 4, 14-methoxymetopon]	0.0198

We next turn to a different molecule, shown below.
Query: I am curious: what Ki value has been reported for CO[C@@]12CCC[C@@H]3Oc4c(O)ccc5c4[C@@]31CCN(C)[C@@H]2C5 [Compound 2a] ?
Response: 0.00864

---

# assayedTarget: human MOR (Homo sapiens, UniProt P35372)
# assayInfo: [35S]GTPγS binding assay using CHO-hMOR cell membranes
# Type: biochemical
# measurementSetup: read-out: functional activity [35S]GTPγS MOR % stim
endpointName: Emax

// worked examples, Emax included
CN1CC[C@]23c4c5ccc(O)c4O[C@H]2C(=O)CC[C@@]3(OCc2ccccc2)[C@H]1C5 101%
CN1CC[C@]23c4c5ccc(O)c4O[C@H]2CCC[C@@]3(O)[C@H]1C5 104%
CO[C@@]12CCC(=O)[C@@H]3Oc4c(O)ccc5c4[C@@]31CCN(C)[C@@H]2C5 96.4%
CO[C@@]12CCC(=O)[C@]3(C)Oc4c(O)ccc5c4[C@@]31CCN(C)[C@@H]2C5 99.2%
CN1CC[C@]23c4c5ccc(O)c4O[C@H]2CCC[C@@]3(OCc2ccccc2)[C@H]1C5 103%

We next turn to a different compound, shown below.
Query: Please state recorded Emax (tested on human MOR (Homo sapiens, UniProt P35372)) of CO[C@@]12CCC[C@@H]3Oc4c(O)ccc5c4[C@@]31CCN(C)[C@@H]2C5
Response: 105%
